In what follows, each item is paired with its pKi for Translocator protein (Homo sapiens, UniProt P30536).
pKi: −log10 of the molar value.
MEASUREMENT_NAME: pKi

[A] CC(=O)N(Cc1ccc(OCCF)cc1)c1cc(C)cc(C)c1
[B] CCN(CC)C(=O)Cn1c(-c2ccc(OC)cc2)cc2c(C)cc(C)cc21
// task: argmin of pKi over [ A , B ] Choose, then provide that item's label.
A
(A: 6.56, B: 6.94)

----------
Species: Homo sapiens
Assay: Selectivity index, ratio of Ki for human TSPO A147T mutant expressed in HEK293 cell membranes to Ki for human TSPO expressed in HEK293 cell membranes
Format: cell-based
The source made the active and inactive calls. The calls are words filed in the database; no cut-off is given here.
MEASUREMENT_NAME: Ratio Ki

The examples below pair each entry with its known result.
MOL_SMILES	Ratio Ki
CCN(CC)C(=O)c1nc2ccccc2n1Cc1ccc(Cl)cc1	< 0.3
CCN(CC)C(=O)c1nc2ccccc2n1Cc1ccc(OC)cc1	> 3.3
CCN(CC)C(=O)CN(Cc1ccc(OC(C)C)cc1)c1cc(C)cc(C)c1	> 4.5
CC(=O)N(Cc1ccc(OC(C)C)cc1)c1cc(C)cc(C)c1	3.8
C#CCN(C)C(=O)c1nc2ccccc2n1Cc1ccc(Cl)cc1	inactive
CN(Cc1ccccc1)C(=O)c1nc2ccccc2n1Cc1ccc(Cl)cc1	inactive

Ratio Ki recorded for this molecule, C#CCN(C)C(=O)c1cc2cc(NS(C)(=O)=O)ccc2n1Cc1ccc(OC)cc1 , is 0.5

Ratio Ki recorded for this molecule, COc1ccc(CN(C(C)=O)c2cc(C)cc(C)c2)cc1 , is 5.6

Lab note: measured Ratio Ki of CCN(CC)C(=O)Cn1c(-c2ccc(OC)cc2)cc2c(C)cc(C)cc21 was 5.7

Reported Ratio Ki ( CCN(CC)C(=O)CN(Cc1ccc(OCCF)cc1)c1cc(C)cc(C)c1 ) = > 7.7

Reported Ratio Ki for CCN(CC)C(=O)CN(Cc1ccccc1)c1cc(C)cc(C)c1 was 4.2

----------
Below are molecules with their Ki as measured on Translocator protein (Homo sapiens, UniProt P30536).
Sequence (P30536 whole entry): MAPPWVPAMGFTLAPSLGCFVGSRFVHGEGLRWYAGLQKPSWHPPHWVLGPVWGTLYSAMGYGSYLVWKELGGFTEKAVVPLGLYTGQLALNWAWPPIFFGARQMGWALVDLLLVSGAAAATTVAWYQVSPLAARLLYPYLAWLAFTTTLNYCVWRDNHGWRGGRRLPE
MEASUREMENT_NAME: Ki (µM)

MOL_SMILES	REPORTED
CCN(CC)C(=O)CN(Cc1ccc(OCCF)cc1)c1cc(C)cc(C)c1	1.29

[I] CCN(CC)C(=O)CN(Cc1ccccc1)c1cc(C)cc(C)c1
[II] C#CCN(C)C(=O)c1nc2ccccc2n1Cc1ccc(OC)cc1
[III] CCN(CC)C(=O)CN(Cc1ccc(OCc2ccccc2)cc1)c1cc(C)cc(C)c1
Given 3 molecules, produce a descending ranking by Ki. Your reply should list the labels following the order given in the request.
II, I, III
(II: 3.28 µM, I: 1.01 µM, III: 0.433 µM)

----------
Species: Homo sapiens
Assay: Selectivity index, ratio of Ki for human TSPO A147T mutant expressed in HEK293 cell membranes to Ki for human TSPO expressed in HEK293 cell membranes
Format: cell-based
The source made the active and inactive calls. The calls are words filed in the database; no cut-off is given here.
MEASUREMENT_NAME: Ratio Ki

MOL_SMILES	MEASUREMENT_NAME	REPORTED
CC(=O)N(Cc1ccc(OCCF)cc1)c1cc(C)cc(C)c1	Ratio Ki	14.3
CCN(CC)C(=O)c1cc2cc(C)ccc2n1Cc1cn[nH]n1	Ratio Ki	inactive
CC(=O)N(Cc1ccccc1)c1cc(C)cc(C)c1	Ratio Ki	4.6
C#CCN(C)C(=O)c1cc2cc(C)ccc2n1Cc1ccc(OC)nc1	Ratio Ki	0.1
C#CCN(C)C(=O)c1nc2ccccc2n1Cc1ccc(OC)cc1	Ratio Ki	> 3
CCN(CC)C(=O)c1cc2cc(C)ccc2n1Cc1ccc(OCc2ccccc2)cc1	Ratio Ki	inactive
C#CCN(C)C(=O)c1cc2cc(NC(C)=O)ccc2n1Cc1ccc(OC)cc1	Ratio Ki	1.4
CCN(CC)C(=O)CN(Cc1ccc(OCc2ccccc2)cc1)c1cc(C)cc(C)c1	Ratio Ki	4.2
CCN(CC)C(=O)CN(Cc1ccc(OC)cc1)c1cc(C)cc(C)c1	Ratio Ki	3.5
CCN(CC)C(=O)c1nc2ccccc2n1Cc1ccccc1	Ratio Ki	inactive

The reported value for CCN(CC)C(=O)c1cc2cc(C)ccc2n1Cc1ccc(O)cc1 in terms of Ratio Ki is inactive

The compound listed as CCN(CC)C(=O)Cn1c(-c2ccc(OC)cc2)nc2c(C)cc(C)cc21 has a reported Ratio Ki of 4.2

compound CC(=O)N(Cc1ccc(OCc2ccccc2)cc1)c1cc(C)cc(C)c1 , Ratio Ki observed: 2

Measured Ratio Ki of CCN(CC)C(=O)c1nc2ccccc2n1Cc1ccc(OC)nc1 : inactive
